Assay: Inhibition of Pseudomonas aeruginosa PAO1 PchB

compound | Ki
O=P(O)(O)C12CC3CC(CC(C3)C1)C2 | > 5000 µM
O=C(O)C1CC2(C(=O)O)C=CC(O)C(C2)O1 (configuration not stated) | 2 µM

###

Tested on: Pseudomonas aeruginosa
Assay: Antimicrobial activity against Pseudomonas aeruginosa PAO1 PvdA deletion mutant after 24 hrs by microplate reader analysis in presence of 5 uM FeCl3
Format: functional, organism-based
Settings: PAO1, 24 h
pEC50: −log10 of the molar value.
result-type: pEC50

smiles-data | reading
COC(=O)Oc1c([N+](=O)[O-])cc2oc(=O)sc2c1[N+](=O)[O-] | < 2.30

###

Assay: Inhibition of Pseudomonas aeruginosa PAO1 PchB expressed in Escherichia coli BL21(DE3) using isochorismate as substrate assessed as salicylate production by fluorescence spectrometry
In this section, each of the molecules is paired with its reported IC50.

smiles-data | IC50, µM
O=C(O)c1cccc(S(=O)(=O)Nc2ccccc2C(=O)O)c1 | 0.25
O=c1oc2cc(Br)c(O)c(Br)c2s1 | 10
COC(=O)Oc1c(Cl)cc2oc(=O)sc2c1[N+](=O)[O-] | 3.3
O=C(O)c1cc(S(=O)(=O)Nc2ccccc2C(=O)O)ccc1Br | 0.24
O=C1S/C(=C/c2cc([N+](=O)[O-])cc([N+](=O)[O-])c2O)C(=O)N1c1ccccc1 | 1.4
COC(=O)Oc1c([N+](=O)[O-])cc2oc(=O)sc2c1[N+](=O)[O-] | 0.87

###

Target: Bifunctional chorismate mutase/prephenate dehydratase (Escherichia coli (strain K12), UniProt P0A9J8)
Sequence (P0A9J8 whole entry): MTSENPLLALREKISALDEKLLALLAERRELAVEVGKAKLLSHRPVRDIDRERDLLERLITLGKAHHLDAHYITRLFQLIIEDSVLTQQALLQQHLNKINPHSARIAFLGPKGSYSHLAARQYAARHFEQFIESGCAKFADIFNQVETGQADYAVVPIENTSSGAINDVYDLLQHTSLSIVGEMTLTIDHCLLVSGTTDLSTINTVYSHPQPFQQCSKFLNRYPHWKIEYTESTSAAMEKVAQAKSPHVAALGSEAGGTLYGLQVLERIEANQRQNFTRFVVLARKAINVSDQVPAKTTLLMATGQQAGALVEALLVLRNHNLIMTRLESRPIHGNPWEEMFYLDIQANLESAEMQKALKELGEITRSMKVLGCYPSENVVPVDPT
Test: Competitive inhibition of Escherichia coli K-12 EcCM expressed in Escherichia coli BL21 Star (DE3) pLysS using chorismate as substrate

smiles-data | unit-abbreviation | Ki
COC(=O)Oc1c([N+](=O)[O-])cc2oc(=O)sc2c1[N+](=O)[O-] | µM | 40
